# target.or.test.system: Sterol O-acyltransferase 1 (Rattus norvegicus) (UniProt O70536)
# Sequence (O70536 whole entry): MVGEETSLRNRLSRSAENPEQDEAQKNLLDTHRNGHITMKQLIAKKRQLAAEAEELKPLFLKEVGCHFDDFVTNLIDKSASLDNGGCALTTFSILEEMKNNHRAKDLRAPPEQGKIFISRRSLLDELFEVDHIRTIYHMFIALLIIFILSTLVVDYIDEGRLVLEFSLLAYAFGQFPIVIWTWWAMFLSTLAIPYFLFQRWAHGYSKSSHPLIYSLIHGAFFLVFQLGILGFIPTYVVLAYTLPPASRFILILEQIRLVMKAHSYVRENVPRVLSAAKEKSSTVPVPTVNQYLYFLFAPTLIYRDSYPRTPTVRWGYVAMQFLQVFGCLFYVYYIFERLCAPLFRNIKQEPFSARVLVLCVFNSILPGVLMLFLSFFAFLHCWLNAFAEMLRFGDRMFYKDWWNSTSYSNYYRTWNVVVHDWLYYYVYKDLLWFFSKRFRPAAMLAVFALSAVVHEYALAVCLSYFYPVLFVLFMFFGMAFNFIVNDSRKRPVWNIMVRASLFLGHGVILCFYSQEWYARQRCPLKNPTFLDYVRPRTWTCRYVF
# assay: Inhibitory activity against acyl coenzyme A:cholesterol acyltransferase at 10 e-6 M in rat microsomes
# conditions: Microsome

{"columns": ["structure", "inhibition / %"],
 "data": [
  ["COc1ccc2ncc(NC(=O)Nc3ccc(F)cc3F)c(-c3ccccc3)c2c1", 85.9],
  ["Cc1ccc2ncc(NC(=O)Nc3ccc(F)cc3F)c(-c3ccccc3Cl)c2c1", 98.5],
  ["O=C(Nc1ccc(F)cc1F)Nc1cnc2ccc(Cl)cc2c1-c1ccc(Cl)cc1", 77],
  ["Cc1cc(C)c2ncc(NC(=O)Nc3c(C(C)C)cccc3C(C)C)c(-c3ccccc3Cl)c2c1", 98],
  ["CN(C(=O)Nc1cnc2ccc(Cl)cc2c1-c1ccccc1)c1ccc(F)cc1F", 9.4],
  ["CCc1ccc2ncc(NC(=O)Nc3ccc(F)cc3F)c(-c3ccccc3Cl)c2c1", 99.2],
  ["O=C(Nc1ccc(F)cc1F)Nc1cnc2ccccc2c1-c1ccccc1Cl", 91.8],
  ["CCCCN(C(=O)Nc1ccc(F)cc1F)c1cnc2ccc(Cl)cc2c1-c1ccccc1", 61.6],
  ["O=C(Nc1ccc(Cl)cc1)Nc1cnc2ccc(Cl)cc2c1-c1ccccc1", 51.5],
  ["Cc1cc(Cl)cc2c(-c3ccccc3Cl)c(NC(=O)Nc3ccc(F)cc3F)cnc12", 97.6]
]}

---

inhibition overview
# target.or.test.system: Sterol O-acyltransferase 1 (Rattus norvegicus)
# Sequence (O70536 whole entry): as above
# assay: Inhibitory activity against acyl coenzyme A:cholesterol acyltransferase at 10 e-6 M in rat microsomes
# conditions: Microsome
observable: inhibition (%)

{"columns": ["structure", "target.or.test.system", "recorded.number"],
 "data": [
  ["O=C(Nc1ccc(F)cc1F)Nc1cnc2ccc(Cl)cc2c1-c1cccc(Cl)c1", "Sterol O-acyltransferase 1 (Rattus norvegicus)", 88.5],
  ["CC(C)c1ccc2ncc(NC(=O)Nc3ccc(F)cc3F)c(-c3ccccc3)c2c1", "Sterol O-acyltransferase 1 (Rattus norvegicus)", 91.6],
  ["O=C(Nc1ccc(F)cc1F)Nc1cnc2ccc(Cl)cc2c1-c1ccccc1", "Sterol O-acyltransferase 1 (Rattus norvegicus)", 88.3],
  ["COc1ccc(-c2c(NC(=O)Nc3ccc(F)cc3F)cnc3ccc(Cl)cc23)cc1", "Sterol O-acyltransferase 1 (Rattus norvegicus)", 92.7],
  ["CSc1ccc2ncc(NC(=O)Nc3ccc(F)cc3F)c(-c3ccccc3)c2c1", "Sterol O-acyltransferase 1 (Rattus norvegicus)", 87.8],
  ["COc1ccccc1-c1c(NC(=O)Nc2ccc(F)cc2F)cnc2ccc(Cl)cc12", "Sterol O-acyltransferase 1 (Rattus norvegicus)", 98.2]
]}

---

# target.or.test.system: Sterol O-acyltransferase 1 (Rattus norvegicus)
# assay: Inhibitory activity against acyl coenzyme A:cholesterol acyltransferase in rat microsomes
# Parameters: species or system Microsome
Recorded log10(IC50) by entry
observable: log10(IC50) (log10 of the value in nM)

{"columns": ["structure", "target.or.test.system", "observable", "recorded.number"],
 "data": [
  ["Cc1cc2c(-c3ccccc3C)c(NC(=O)Nc3ccc(F)cc3F)cnc2cc1Cl", "Sterol O-acyltransferase 1 (Rattus norvegicus)", "log10(IC50)", 0.97],
  ["O=C(Nc1ccc(F)cc1F)Nc1cnc2ccc(Cl)cc2c1-c1ccccc1", "Sterol O-acyltransferase 1 (Rattus norvegicus)", "log10(IC50)", 2.33],
  ["Cc1cc(Cl)cc2c(-c3ccccc3Cl)c(NC(=O)Nc3ccc(F)cc3F)cnc12", "Sterol O-acyltransferase 1 (Rattus norvegicus)", "log10(IC50)", 1.08],
  ["Cc1cc(Cl)c2ncc(NC(=O)Nc3ccc(F)cc3F)c(-c3ccccc3Cl)c2c1", "Sterol O-acyltransferase 1 (Rattus norvegicus)", "log10(IC50)", 0.95],
  ["O=C(Nc1ccccc1F)Nc1cnc2ccc(Cl)cc2c1-c1ccccc1", "Sterol O-acyltransferase 1 (Rattus norvegicus)", "log10(IC50)", 2.97],
  ["O=C(Nc1ccc(F)cc1F)Nc1cnc2ccccc2c1-c1ccccc1Cl", "Sterol O-acyltransferase 1 (Rattus norvegicus)", "log10(IC50)", 2.10],
  ["Cc1cc2ncc(NC(=O)Nc3ccc(F)cc3F)c(-c3ccccc3Cl)c2cc1C", "Sterol O-acyltransferase 1 (Rattus norvegicus)", "log10(IC50)", 0.76]
]}
